biological target: T1, human PD-L1 (huPD-L1), full-length, stably expressed on CHO cells (human, UniProt Q9NZQ7 19-290); assay: flow cytometry, CHO cells expressing huPD-L1
T1 construct: whole, on cells
T1 sequence (Q9NZQ7 19-290): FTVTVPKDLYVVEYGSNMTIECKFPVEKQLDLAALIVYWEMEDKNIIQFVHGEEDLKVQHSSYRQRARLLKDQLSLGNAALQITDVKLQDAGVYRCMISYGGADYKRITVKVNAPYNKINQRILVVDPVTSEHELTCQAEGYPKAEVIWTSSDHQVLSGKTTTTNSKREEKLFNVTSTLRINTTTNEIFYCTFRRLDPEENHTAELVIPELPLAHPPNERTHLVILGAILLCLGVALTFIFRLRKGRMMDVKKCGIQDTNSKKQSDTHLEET
Below, each of the binders is paired with its reported MFI at 33.3 nM value.

- BINDER: "variant CD80 IgV-Fc E24D/E35D/M47L/V68M/E95V/L97Q (Fc fusion, not shown: small tags and cut ends; a dimerising Fc or GST) VIHVTKEVKEVATLSCGHNVSVEDLAQTRIYWQKDKKMVLTMMSGDLNIWPEYKNRTIFDITNNLSIMILALRPSDEGTYECVVLKYEKDAFKRVHQAEVTLSVKAD"
  MFI at 33.3 nM: "18600 MFI"
- BINDER: "variant CD80 IgV-Fc Q27L/Q33L/E35D/T41S/M47V/N48K/V68M/L85M (Fc fusion, not shown: small tags and cut ends; a dimerising Fc or GST) VIHVTKEVKEVATLSCGHNVSVEELALTRIYWLKDKKMVLSMMSGDVKIWPEYKNRTIFDITNNLSIMILALRPSDEGTYECVVMKYEKDAFKREHLAEVTLSVKAD"
  MFI at 33.3 nM: "16500 MFI"
- BINDER: "variant CD80 IgV-Fc E35D/M47V/V68M/L85M (Fc fusion, not shown: small tags and cut ends; a dimerising Fc or GST) VIHVTKEVKEVATLSCGHNVSVEELAQTRIYWQKDKKMVLTMMSGDVNIWPEYKNRTIFDITNNLSIMILALRPSDEGTYECVVMKYEKDAFKREHLAEVTLSVKAD"
  MFI at 33.3 nM: "9180 MFI"
- BINDER: "variant CD80 IgV-Fc E35D/D46E/M47V/V68M/L85Q (Fc fusion, not shown: small tags and cut ends; a dimerising Fc or GST) VIHVTKEVKEVATLSCGHNVSVEELAQTRIYWQKDKKMVLTMMSGEVNIWPEYKNRTIFDITNNLSIMILALRPSDEGTYECVVQKYEKDAFKREHLAEVTLSVKAD"
  MFI at 33.3 nM: "1720 MFI"
- BINDER: "variant CD80 IgV-Fc E35D/M47I/V68M/Y87N (Fc fusion, not shown: small tags and cut ends; a dimerising Fc or GST) VIHVTKEVKEVATLSCGHNVSVEELAQTRIYWQKDKKMVLTMMSGDINIWPEYKNRTIFDITNNLSIMILALRPSDEGTYECVVLKNEKDAFKREHLAEVTLSVKAD"
  MFI at 33.3 nM: "13100 MFI"
- BINDER: "variant CD80 IgV-Fc E35D/M47V/V68M/L85M/Y87D (Fc fusion, not shown: small tags and cut ends; a dimerising Fc or GST) VIHVTKEVKEVATLSCGHNVSVEELAQTRIYWQKDKKMVLTMMSGDVNIWPEYKNRTIFDITNNLSIMILALRPSDEGTYECVVMKDEKDAFKREHLAEVTLSVKAD"
  MFI at 33.3 nM: "1720 MFI"
- BINDER: "variant CD80 IgV-Fc E35D/D46E/M47L/V68M/T79M/L85M (Fc fusion, not shown: small tags and cut ends; a dimerising Fc or GST) VIHVTKEVKEVATLSCGHNVSVEELAQTRIYWQKDKKMVLTMMSGELNIWPEYKNRTIFDITNNLSIMILALRPSDEGMYECVVMKYEKDAFKREHLAEVTLSVKAD"
  MFI at 33.3 nM: "8640 MFI"
